Biological target: T1, Biotinylated human TSLP (human, biotinylated)
T1 construct: also called hTSLP; thymic stromal lymphopoietin
T1 sequence (chain, as listed by the source limits assumed): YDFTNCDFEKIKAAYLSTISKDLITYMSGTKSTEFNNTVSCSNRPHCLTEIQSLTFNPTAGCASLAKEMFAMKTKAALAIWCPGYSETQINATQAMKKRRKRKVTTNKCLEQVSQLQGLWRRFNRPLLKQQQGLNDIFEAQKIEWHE
Test: SPR, biotinylated hTSLP on streptavidin chip
*1 amine or outer side, *2 acyl side, *3 side chain or, on linkers, in order; H or OH if unused. Bridges are numbered along the chain shown (N, C = ends). Where no end group is shown, it is not given here. [ ]: non-standard residue; d: D form. TATA = O=C(CC[*:1])N1CN(C(=O)CC[*:2])CN(C(=O)CC[*:3])C1; Ala(cPr) = N[C@@H](CC1CC1)C(=O)O
Catalogue of binders with associated pKd
The quantity pKd is defined as the negative base-10 logarithm of the molar concentration.

Recorded pKd, per entry:
Look up pKd of CQWLFDCWRGXC (not fully specified; N-term acetyl; CQWLFDCWRG[4-FPhe]C as printed; 3 Cys on TATA) [Example 43] and report it. 7.52

Annotate the binder SHVCRDLDPWTCDSWWLCA (linker 4-12-18 via TATA) [Example 188] with its measured pKd. 7.14

Give the reported value of pKd for this record: CQWLQDCWXGXC (N-term acetyl; CQWLQDCW[ADMA]G[4-FPhe]C as printed; 3 Cys on TATA) [Example 20] 8.07

Consider the binder CTELDXWTCETWWLC (CTELD[5-Ph-P]WTCETWWLC as printed; 3 Cys on TATA) [Example 194] . State its measured pKd. 6.54

Further cases:
Supply measured pKd of CQWLEDCWXGFC (not fully specified; CQWLEDCW[Cit]GFC as printed; 3 Cys on TATA) [Example 102] in your reply. 6.77

Report measured pKd; entry is CQXLEDCWXGXC (not fully specified; N-term acetyl; CQ[Nal1]LEDCW[ADMA]G[4-FPhe]C as printed; 3 Cys on TATA) [Example 38] 7.70

Look up and state reported pKd for CQWLEDCWRGXC (N-term acetyl; CQWLEDCWRG[2ThienylA]C as printed; 3 Cys on TATA) [Example 135] 6.31

Complete the entry with pKd for CQWLEDCWRGXC (not fully specified; N-term acetyl; CQWLEDCWRG[3-F,4-ClPhe]C as printed; 3 Cys on TATA) [Example 41] 7.62

Given the binder CQWLEDCWRGXC (not fully specified; N-term acetyl; CQWLEDCWRG[3,4,5triFPhe]C as printed; 3 Cys on TATA) [Example 37] , write its reported pKd. 7.72

Please give measured pKd of the following entry: ACDWDWEYDCWLHCA (linker 2-10-14 via TATA) [Example 198] 6.54

Output pKd of ACRDLDPWTCSSWWLCADGLYDA (linker 2-10-16 via TATA) [Example 193] 7.30

Retrieve pKd measured for CQWLQDCFRGXC (N-term acetyl; CQWLQDCFRG[4-FPhe]C as printed; 3 Cys on TATA) [Example 118] and print it. 6.60

Identify measured pKd associated with Ac-CQW[Ala(cPr)]EDCWRGFC (linker 1-7-12 via TATA; not fully specified (C-terminus); printed as CQW[CproA]EDCWRGFC) [Example 80] 7.00

Specify measured pKd for CQWLENCWRGXC (not fully specified; N-term acetyl; CQWLENCWRG[4-FPhe]C as printed; 3 Cys on TATA) [Example 23] . 8.00
